System: U2OS
Assay: Incucyte cell viability with U2OS; further: filed as whole numbers so only -1 and 0 and 1 occur
Format: toxicity, cell-based
Settings: human, 6 h, 10 µM, compound concentration 10 uM, replicate number 1, timepoint 6 hours
Listed here: items and their measured Growth Rate.

structure.string: c1ccc2oc(-c3csc(C4CCN(Cc5nc6ncccc6[nH]5)CC4)n3)cc2c1
Growth Rate: 0
//
structure.string: COc1cc2c(Nc3ccc(NC(=O)c4ccccc4)cc3)ncnc2cc1OCCCN1CCOCC1
Growth Rate: 1
//
structure.string: O=C(NOC[C@H](O)CO)c1ccc(F)c(F)c1Nc1ccc(I)cc1F
Growth Rate: 0
//
structure.string: C[C@H](c1ccnc(Nc2nc3ccc(-c4cc(N(C)C)ncn4)cc3[nH]2)c1)N1CCN(C(=O)CC(F)(F)F)CC1
Growth Rate: 1
//
structure.string: O=C(NC[C@H](O)CN1CCc2ccccc2C1)c1ccnc(NC2CCC2)c1
Growth Rate: 0
